system: Saccharomyces cerevisiae; assay: protein stability index of tFT-peptide fusion (C-terminal peptide) (PSI (0-1 scale)); higher = more stable (slower turnover); settings: genetic background: das1 deletion; temperature: 30 C;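 note: PSI is a weighted mean of sequencing reads over stability bins, variants kept only with over 10 reads, mCherry proximal and sfGFP distal, peptide attached via GGGS linker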
Overview of recorded protein stability index for various sequences
Give the value as a plain number.

The following sequences have reported results that may help.
Form field: reported protein stability index of `RLIQPLPVQFLN`
0.616

Form field: reported protein stability index of `LGPLGWLVLLLV`
0.353

Form field: reported protein stability index of `CLFSVLFPLFFR`
0.137

Form field: reported protein stability index of `GCFVDRVYVVVV`
0.381

New cases:
Form field: reported protein stability index of `VWSWFVIYFFFC`
0.335

Form field: reported protein stability index of `VAVYVGVGVSLG`
0.311
